method_description: Protein expression levels of GDH variants
Set-up: species or system Escherichia coli
experimental_conditions: expressed in E. coli
readout_kind: log10 of Expression level (log10 of the value in μg protein/ml culture)
Units before log transform: μg protein/ml culture; reported quantity: Expression level; transform: log10.

Some molecules with known log10 of Expression level results, for comparison:
molecule	log10 of Expression level
N92V (protein) MYPDLKGKVVAITGAASGLGKAMAIRFGKEQAKVVINYYSNKQDPNEVKEEVIKAGGEAVVVQGDVTKEEDVKNIVQTAIKEFGTLDIMINVAGLENPVPSHEMPLKDWDKVIGTNLTGAFLGSREAIKYFVENDIKGNVINMSSVHEVIPWPLFVHYAASKGGIKLMTETLALEYAPKGIRVNNIGPGAINTPINAEKFADPKQKADVESMIPMGYIGEPEEIAAVAAWLASKEASYVTGITLFADGGMTQYPSFQAGRG	1.76
I195S (protein) MYPDLKGKVVAITGAASGLGKAMAIRFGKEQAKVVINYYSNKQDPNEVKEEVIKAGGEAVVVQGDVTKEEDVKNIVQTAIKEFGTLDIMINNAGLENPVPSHEMPLKDWDKVIGTNLTGAFLGSREAIKYFVENDIKGNVINMSSVHEVIPWPLFVHYAASKGGIKLMTETLALEYAPKGIRVNNIGPGAINTPSNAEKFADPKQKADVESMIPMGYIGEPEEIAAVAAWLASKEASYVTGITLFADGGMTQYPSFQAGRG	1.98
G94S (protein) MYPDLKGKVVAITGAASGLGKAMAIRFGKEQAKVVINYYSNKQDPNEVKEEVIKAGGEAVVVQGDVTKEEDVKNIVQTAIKEFGTLDIMINNASLENPVPSHEMPLKDWDKVIGTNLTGAFLGSREAIKYFVENDIKGNVINMSSVHEVIPWPLFVHYAASKGGIKLMTETLALEYAPKGIRVNNIGPGAINTPINAEKFADPKQKADVESMIPMGYIGEPEEIAAVAAWLASKEASYVTGITLFADGGMTQYPSFQAGRG	2.07
S17Q-P194N (protein) MYPDLKGKVVAITGAAQGLGKAMAIRFGKEQAKVVINYYSNKQDPNEVKEEVIKAGGEAVVVQGDVTKEEDVKNIVQTAIKEFGTLDIMINNAGLENPVPSHEMPLKDWDKVIGTNLTGAFLGSREAIKYFVENDIKGNVINMSSVHEVIPWPLFVHYAASKGGIKLMTETLALEYAPKGIRVNNIGPGAINTNINAEKFADPKQKADVESMIPMGYIGEPEEIAAVAAWLASKEASYVTGITLFADGGMTQYPSFQAGRG	2.07

Continue with the next molecule.
Input: Entry I195R-A93K: Bs GDH variant I195R A93K (protein) MYPDLKGKVVAITGAASGLGKAMAIRFGKEQAKVVINYYSNKQDPNEVKEEVIKAGGEAVVVQGDVTKEEDVKNIVQTAIKEFGTLDIMINNKGLENPVPSHEMPLKDWDKVIGTNLTGAFLGSREAIKYFVENDIKGNVINMSSVHEVIPWPLFVHYAASKGGIKLMTETLALEYAPKGIRVNNIGPGAINTPRNAEKFADPKQKADVESMIPMGYIGEPEEIAAVAAWLASKEASYVTGITLFADGGMTQYPSFQAGRG needs its log10 of Expression level filled in; supply it.
Output: 1.05
